These data points were gathered from the supplement of paper PMC10201428.

B1: library; a variant is named by its letters at N, in order (parent)
chain: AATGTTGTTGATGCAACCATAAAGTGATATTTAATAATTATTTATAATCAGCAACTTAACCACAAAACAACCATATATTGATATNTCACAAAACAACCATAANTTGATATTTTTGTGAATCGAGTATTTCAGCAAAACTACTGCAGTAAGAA

# Variants of: B1
# Experiment Description: relative integration efficiency (T-RL orientation) vs wild-type transposon end (log2 (normalized fold change)); transposon end mutated: left end; higher = more efficient transposition
# Conditions: with VchCAST RNA-guided transposition machinery (E. coli BL21(DE3) host, lacZ target)
Kindly supply the reported relative integration efficiency (log2) values for the records listed here.
Just the number, please.

Entry CG A34T A36G A37T T38G T39A A40G T41C T42G T43G T48C C49A ; relative integration efficiency (log2) = -2.86

Entry CG C55A T56G T57G A58C ; relative integration efficiency (log2) = -2.14

Entry CG A50T ; relative integration efficiency (log2) = -0.161

Entry CG A19C ; relative integration efficiency (log2) = -1.49

Entry CG G115T T116G G117T A118C ; relative integration efficiency (log2) = -0.00966

Entry CG A27T T28A ; relative integration efficiency (log2) = -0.441

Entry CG T39C ; relative integration efficiency (log2) = 0.0645

Entry CC A102T ; relative integration efficiency (log2) = -0.155

Entry CG G24T T78G T104G ; relative integration efficiency (log2) = -0.352

Entry CG A59T ; relative integration efficiency (log2) = 0.0634

Entry CG A67C ; relative integration efficiency (log2) = -0.129

Entry CG A81C T82G ; relative integration efficiency (log2) = -0.963

Entry CG G13C C14G A15T A16T ; relative integration efficiency (log2) = -1.03

Entry CG T114A G115C T116A G117C ; relative integration efficiency (log2) = -0.00788

Entry CG A11T T12A ; relative integration efficiency (log2) = -0.325

Entry TA A70C T76A T84A C87A A102T T111C T113C ; relative integration efficiency (log2) = 0.128

Entry CG C17A ; relative integration efficiency (log2) = 0.0401

Entry CC A22T A23T G24C T25A T76A A77T T78A T79A A102T T104A T105A ; relative integration efficiency (log2) = -3

Entry CG A15C A16C ; relative integration efficiency (log2) = 0.081

Entry TA A16C G24T T32G A33C T76A A77G C87T A102T T111C T113C ; relative integration efficiency (log2) = -1.11

Entry TG A22T G24T T31C A33C T76A T78G C87A ; relative integration efficiency (log2) = 0.463

Entry CG A67C C68A A69C A70C ; relative integration efficiency (log2) = -0.531

Entry CG T39A A40T ; relative integration efficiency (log2) = 0.244

Entry CG C71G C72G ; relative integration efficiency (log2) = -1.32

Entry CG A46T ; relative integration efficiency (log2) = -0.0773

Entry CG A2T T3A ; relative integration efficiency (log2) = 0.191

Entry CA A16C G24T T32G A33C A96C T112G T113C ; relative integration efficiency (log2) = -0.695

Entry TA G24A T30A T76A T78G C87A A96C T110A T113A ; relative integration efficiency (log2) = 0.0775

Entry CG C87T ; relative integration efficiency (log2) = -0.0232

Entry CG G106T A107C ; relative integration efficiency (log2) = -1.42

Entry TA G24A T30A T76A A77G C87T A96C T110A T113A ; relative integration efficiency (log2) = 0.0249

Entry CG A64C A65C A66C A67C ; relative integration efficiency (log2) = -0.323

Entry CG T35A A36T ; relative integration efficiency (log2) = 0.153

Entry CG C52G ; relative integration efficiency (log2) = -0.00219

Entry `CA` ; relative integration efficiency (log2) = 0.299

Entry CG A33T ; relative integration efficiency (log2) = 0.135

Entry CA A16C G24T T32G A33C A102T T111C T113C ; relative integration efficiency (log2) = -0.751

Entry CG A58C A59C ; relative integration efficiency (log2) = -0.0826

Entry CG A96C ; relative integration efficiency (log2) = 0.724

Entry CG C14A C68A C94A ; relative integration efficiency (log2) = -0.864

Entry CG T116G G117T A118C A119C ; relative integration efficiency (log2) = 0.0794

Entry CG T78G T79G ; relative integration efficiency (log2) = 0.387

Entry CG A54C C55A ; relative integration efficiency (log2) = -0.0734

Entry CG T3C ; relative integration efficiency (log2) = 0.297

Entry CG A40T T41A T42A T43A ; relative integration efficiency (log2) = 0.0403

Entry CG G26T A27C T28G A29C ; relative integration efficiency (log2) = -1.9

Entry TA A23G G24T A33T A70C T76A T86G A96C T112G T113C ; relative integration efficiency (log2) = -0.338

Entry CA A22T G24T T31C A33C T104G T113A ; relative integration efficiency (log2) = -0.629

Entry CG T6A G7C T8A T9A ; relative integration efficiency (log2) = -6.58

Entry CA T104A T110A T113A ; relative integration efficiency (log2) = -0.656

Entry CG T25A G26C A27T T28A ; relative integration efficiency (log2) = -2.28

Entry CG A67T C68G ; relative integration efficiency (log2) = -0.543

Entry CG T12A G13A T30A T31C T32A A77C T86G ; relative integration efficiency (log2) = -0.303

Entry CG T25A T79A T105A ; relative integration efficiency (log2) = -1.88

Entry CG T6G ; relative integration efficiency (log2) = -7.01

Entry CG T38A T39A A40T T41A ; relative integration efficiency (log2) = 0.168

Entry CG G7T T8G T9G G10T ; relative integration efficiency (log2) = -7.84

Entry CG T48C ; relative integration efficiency (log2) = -0.219

Entry CG T12A G13A T30A T31C A77C T86G ; relative integration efficiency (log2) = -0.538

Entry CG G26C A27T T28A A29T ; relative integration efficiency (log2) = -1.58

Entry CG T113G ; relative integration efficiency (log2) = -0.0711

Entry CG A1G ; relative integration efficiency (log2) = 0.133

Entry CG A44G A46G T48G A50G C52A A53T C55A T56C T57A ; relative integration efficiency (log2) = -4.04

Entry CA A16C G24T T32G A33C T104G T113A ; relative integration efficiency (log2) = -0.765

Entry CG T79C ; relative integration efficiency (log2) = -0.605

Entry CG T30A T31C T32A ; relative integration efficiency (log2) = -0.29

Entry CG T31A T32A A33T A34T ; relative integration efficiency (log2) = -0.0923

Entry CG A58C ; relative integration efficiency (log2) = -0.223

Entry CG T57A ; relative integration efficiency (log2) = 0.139

Entry CC T100A A101T A102T ; relative integration efficiency (log2) = -0.77

Entry CG C14A A15C A16C C17A ; relative integration efficiency (log2) = -1.38

Entry AG T82G A83C T84G ; relative integration efficiency (log2) = -1.7

Entry CG A34G ; relative integration efficiency (log2) = -0.0204

Entry CG T108G A109C ; relative integration efficiency (log2) = -1.16

Entry CG C89G ; relative integration efficiency (log2) = -0.315

Entry CG T25G ; relative integration efficiency (log2) = -0.455

Entry CG C60A ; relative integration efficiency (log2) = 0.0973

Entry CG G13A ; relative integration efficiency (log2) = 0.195

Entry CG C97A C98A ; relative integration efficiency (log2) = -1.7

Entry CG C71A C72A ; relative integration efficiency (log2) = -1.05

Entry TA T76A A77G C87T T104A T110A T113A ; relative integration efficiency (log2) = -0.703

Entry CG A66G ; relative integration efficiency (log2) = 0.0591

Entry CG A75C T76G A77C T78G ; relative integration efficiency (log2) = -1.8

Entry CG T56A T57A ; relative integration efficiency (log2) = -0.165

Entry CG A22C A23C ; relative integration efficiency (log2) = -1.42

Entry CC T104A T105A G106C ; relative integration efficiency (log2) = -1.71

Entry TA A23G G24T A33T A70C T76A T84A C87A A102T T111C T113C ; relative integration efficiency (log2) = 0.133

Entry CG A16T A70T A96T ; relative integration efficiency (log2) = -0.887

Entry CG A33T C87G T113A ; relative integration efficiency (log2) = -0.157

Entry CG A16T C17G C18G A19T ; relative integration efficiency (log2) = -1.61

Entry CG A53C A54C C55A T56G ; relative integration efficiency (log2) = -0.592
